Values compiled from patent US6218168A.

Tested on: serine acetyltransferase
Assay: Serine acetyltransferase enzyme activity test with and without L-cysteine (inhibitor constant Ki, specific activity)
Assay type: biochemical, E. coli
Details: Table 1a; serine acetyltransferase activity

>  <molecule>
cysEV: triple mutant Val237, Ser238, Ile256 (protein, UniProt P0A9D4 1-273, looked up, variant A237V G238S M256I) Serine acetyltransferase: MSCEELEIVWNNIKAEARTLADCEPMLASFYHATLLKHENLGSALSYMLANKLSSPIMPAIAIREVVEEAYAADPEMIASAACDIQAVRTRDPAVDKYSTPLLYLKGFHALQAYRIGHWLWNQGRRALAIFLQNQVSVTFQVDIHPAAKIGRGIMLDHATGIVVGETAVIENDVSILQSVTLGGTGKSGGDRHPKIREGVMIGAGAKILGNIEVGRGAKIGAGSVVLQPVPPHTTAVSVPARIVGKPDSDKPSMDIDQHFNGINHTFEYGDGI

>  <spec. act.>
0.246 µmol/min/mg

$$$$
